Data origin, for the record: paper PMC6888004

# Target desc: recombinant c-Met kinase (Homo sapiens)
# Sequence (P08581 25-1390): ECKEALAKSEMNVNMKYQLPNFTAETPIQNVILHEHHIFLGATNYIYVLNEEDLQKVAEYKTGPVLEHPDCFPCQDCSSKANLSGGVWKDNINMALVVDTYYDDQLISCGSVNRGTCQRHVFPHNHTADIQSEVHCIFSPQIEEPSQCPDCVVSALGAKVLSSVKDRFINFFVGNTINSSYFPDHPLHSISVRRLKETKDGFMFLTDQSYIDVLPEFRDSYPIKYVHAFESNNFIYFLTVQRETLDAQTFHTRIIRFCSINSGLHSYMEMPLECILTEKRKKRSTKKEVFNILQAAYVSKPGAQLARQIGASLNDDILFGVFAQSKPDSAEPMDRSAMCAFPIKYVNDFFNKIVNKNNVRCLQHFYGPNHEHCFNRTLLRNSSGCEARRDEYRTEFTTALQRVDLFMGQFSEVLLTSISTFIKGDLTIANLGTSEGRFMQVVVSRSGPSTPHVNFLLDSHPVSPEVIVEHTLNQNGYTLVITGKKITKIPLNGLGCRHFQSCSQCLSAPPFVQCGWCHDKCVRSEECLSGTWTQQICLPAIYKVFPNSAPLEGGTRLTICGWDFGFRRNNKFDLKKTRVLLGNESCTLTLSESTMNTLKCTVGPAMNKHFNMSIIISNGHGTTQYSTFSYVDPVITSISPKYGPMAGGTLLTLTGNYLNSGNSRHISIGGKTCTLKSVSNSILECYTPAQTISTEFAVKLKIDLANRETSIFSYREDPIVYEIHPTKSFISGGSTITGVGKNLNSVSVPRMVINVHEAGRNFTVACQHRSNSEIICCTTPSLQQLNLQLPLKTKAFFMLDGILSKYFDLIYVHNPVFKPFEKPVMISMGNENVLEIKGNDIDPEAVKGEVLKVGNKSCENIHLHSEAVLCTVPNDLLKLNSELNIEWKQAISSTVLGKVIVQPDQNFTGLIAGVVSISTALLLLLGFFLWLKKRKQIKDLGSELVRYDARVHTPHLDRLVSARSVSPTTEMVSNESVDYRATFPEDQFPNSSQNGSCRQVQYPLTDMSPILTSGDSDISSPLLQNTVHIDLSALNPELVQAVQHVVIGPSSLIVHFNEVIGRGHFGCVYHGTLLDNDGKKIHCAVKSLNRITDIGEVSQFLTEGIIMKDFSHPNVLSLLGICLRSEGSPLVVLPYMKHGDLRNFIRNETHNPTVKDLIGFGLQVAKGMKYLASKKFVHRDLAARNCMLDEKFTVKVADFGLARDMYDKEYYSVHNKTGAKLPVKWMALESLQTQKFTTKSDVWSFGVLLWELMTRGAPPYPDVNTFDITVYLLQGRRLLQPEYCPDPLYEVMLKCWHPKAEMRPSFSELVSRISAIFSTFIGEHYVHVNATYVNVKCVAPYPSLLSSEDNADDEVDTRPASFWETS
# Measurement description: In vitro inhibition of recombinant c-Met kinase (ADP-Glo)
# Condition notes: recombinant kinase assay, ATP 3.1 µM
Reported values of pIC50 for individual entries
// field semantics: pIC50 = negative decimal log of concentration (mol/L)

CC(Oc1cc(-c2cnn(C3CCN(CCO)CC3)c2)cnc1N)c1c(Cl)ccc(F)c1Cl (stereo not drawn) : 7.41

API: the following record is the query input.
Look up and report measured pIC50 for this entry: CC(C)C[C@H](NC(=O)[C@@H](CCCCNC(=O)CCCC(=O)N1CCC(n2cc(-c3cnc(N)c(OC(C)c4c(Cl)ccc(F)c4Cl)c3)cn2)CC1)NC(=O)[C@H](Cc1ccc(O)cc1)NC(=O)[C@H](CO)NC(=O)[C@H](Cc1c[nH]c2ccccc12)NC(=O)[C@H](Cc1c[nH]cn1)NC(=O)[C@@H]1CCC(=O)N1)C(=O)N[C@@H](CCCNC(=N)N)C(=O)N1CCC[C@H]1C(=O)NCC(N)=O (mixture of isomers) [[D-Lys^6(crizotinib*)]–GnRH-I] 6.79
